- Test system: AKT phosphorylation
- assay_summary: In vitro test of the inhibition effect on AKT phosphorylation (ELISA, Ramos cells)
- Assay type: cell-based
- experimental_conditions: Homo sapiens, Ramos, Ramos cell line, compound 1 hour, goat anti-human IgM 10 ug/ml for 10 minutes, Phospho-AKT 1/2/3 (ser473) ELISA; read-out: Inhibit AKT phosphorylation IC50
pIC50: −log10 of the molar value.
measurement_label: pIC50

[
  {
    "molecule": "Cn1c(=O)c(Nc2ccc(N3CCOCC3)cn2)cc2c(Cl)c(-c3cc[nH]n3)ccc21 [Example 7]",
    "pIC50": 6.68
  }
]

(I) Cn1c(=O)c(Nc2ccc(N3CCOCC3)cc2)nc2ccc(-c3c[nH]cn3)cc21 [Example 31]
(II) Cn1c(=O)c(Nc2ccc(N3CCNCC3)cc2)nc2ccc(-c3cn[nH]c3)cc21 [Example 39]
(III) Cn1c(=O)c(Nc2ccc(C3CCOCC3)cn2)cc2cc(-c3cc[nH]n3)ccc21 [Example 3]
Hey, quick one: sort these by pIC50, largest value first please. # answer = labels listed in requested order
II, I, III
(II: 7.22, I: 6.88, III: 6.49)

* * *

- System: AKT phosphorylation
- assay_summary: In vitro test of the inhibition effect on AKT phosphorylation (ELISA, Ramos cells)
- Format: cell-based
- experimental_conditions: Homo sapiens, Ramos, Ramos cell line, compound 1 hour, goat anti-human IgM 10 ug/ml for 10 minutes, Phospho-AKT 1/2/3 (ser473) ELISA; read-out: Inhibit AKT phosphorylation IC50
pIC50: −log10 of the molar value.
measurement_label: pIC50

(a) Cc1[nH]ncc1-c1ccc2nc(Nc3ccc(N4CCOCC4)cc3)c(=O)n(C)c2c1
(b) Cn1c(=O)c(Nc2ccc(N3CCC4(CC3)COC4)cn2)cc2c(F)c(-c3cc[nH]n3)ccc21
Hi, I'm comparing a with b and wondering which one has the bigger number for pIC50. Any idea? The response must carry the label of the picked entry.
a
(a: 6.63, b: 6.12)

(P) Cn1c(=O)c(Nc2ccc(S(=O)(=O)N3CCCCC3)cc2)nc2ccc(-c3cn[nH]c3)cc21
(Q) Cn1c(=O)c(Nc2ccc(N3CCN(C4COC4)CC3)cn2)cc2c(F)c(-c3cc[nH]n3)ccc21
Please indicate which entry, P or Q , has the lower recorded pIC50 value. The response must carry the label of the picked entry.
P
(P: 6.46, Q: 6.77)

* * *

- Test system: AKT phosphorylation
- assay_summary: In vitro test of the inhibition effect on AKT phosphorylation (ELISA, Ramos cells)
- Format: cell-based
- experimental_conditions: Homo sapiens, Ramos, Ramos cell line, compound 1 hour, goat anti-human IgM 10 ug/ml for 10 minutes, Phospho-AKT 1/2/3 (ser473) ELISA; read-out: Inhibit AKT phosphorylation IC50
measurement_label: IC50 (nM)

(A) Cn1c(=O)c(Nc2ccc(N3CCOCC3)cc2)nc2ccc(-c3cn[nH]c3)cc21
(B) Cn1c(=O)c(Nc2ccc(N3CCC[C@H](C(=O)O)C3)cn2)cc2c(F)c(-c3cc[nH]n3)ccc21
Please indicate which entry, A or B , has the lower recorded IC50 value. The response must carry the label of the picked entry.
A

* * *

pIC50: −log10 of the molar value.
Record: pIC50 reported on SYK kinase (Homo sapiens).
measurement_label: pIC50

Completed entries (count: 3):
[
  {
    "compound": "Cn1c(=O)c(Nc2ccc(N3CCOCC3)cc2)nc2ccc(-c3nccs3)cc21",
    "tested_target": "SYK kinase (Homo sapiens)",
    "value": 6.67
  },
  {
    "compound": "Cn1c(=O)c(Nc2ccc(N3CCOCC3)nc2)nc2ccc(-c3cn[nH]c3)cc21",
    "tested_target": "SYK kinase (Homo sapiens)",
    "value": 7.41
  },
  {
    "compound": "Cn1c(=O)c(Nc2ccc(N3CCOCC3)cc2)nc2cc(F)c(-c3cn[nH]c3)cc21",
    "tested_target": "SYK kinase (Homo sapiens)",
    "value": 7.69
  }
]

(1) Cn1c(=O)c(Nc2ccc(N3CCCC(C)(C(=O)O)C3)cn2)cc2c(F)c(-c3cc[nH]n3)ccc21 (stereo not shown)
(2) CCS(=O)(=O)N1CCN(c2ccc(Nc3nc4ccc(-c5cn[nH]c5)cc4n(C)c3=O)cc2)CC1
(3) Cn1c(=O)c(Nc2ccc(N3CCOCC3)cc2F)nc2ccc(-c3cn[nH]c3)cc21
(4) Cc1[nH]ncc1-c1ccc2nc(Nc3ccc(N4CCOCC4)cc3)c(=O)n(C)c2c1
(5) Cn1c(=O)c(Nc2ccc(N3CCN(C4COC4)CC3)cn2)cc2c(F)c(-c3cc[nH]n3)ccc21
Hey, quick one: sort these by pIC50, largest value first please. # answer = labels listed in requested order
2, 5, 1, 4, 3
(2: 8.19, 5: 7.92, 1: 7.60, 4: 7.21, 3: 6.62)

(1) Cn1c(=O)c(Nc2ccc(N3CCOCC3)cn2)nc2ccc(-c3cn[nH]c3)cc21
(2) COc1cc(Nc2nc3ccc(-c4cn[nH]c4)cc3n(C)c2=O)ccc1N1CCOCC1
Hi, I'm comparing 1 with 2 and wondering which one has the bigger number for pIC50. Any idea? The response must carry the label of the picked entry.
2

(1) Cn1c(=O)c(Nc2ccc(N3CCN(C4COC4)CC3)cn2)cc2cc(-c3cc[nH]n3)ccc21
(2) Cn1c(=O)c(Nc2ccc(N3CCOCC3)cc2)nc2ccc(-c3cn[nH]c3)c(Cl)c21
(3) Cn1c(=O)c(Nc2ccc(N3CCS(=O)(=O)CC3)cc2)nc2ccc(-c3cn[nH]c3)cc21
Hey, quick one: sort these by pIC50, largest value first please. # answer = labels listed in requested order
3, 1, 2
(3: 8.29, 1: 7.46, 2: 6.94)

* * *

Record: pIC50 reported on SYK kinase (Homo sapiens, UniProt P43405).
pIC50: −log10 of the molar value.
measurement_label: pIC50

(I) Cn1c(=O)c(Nc2ccc(N3CCOCC3)cc2)nc2ccc(-c3c[nH]cn3)cc21
(II) Cn1c(=O)c(Nc2ccc(N3CCC[C@H](C(=O)O)C3)cn2)cc2c(F)c(-c3cc[nH]n3)ccc21
(III) Cn1c(=O)c(Nc2cccc(N3CCN(S(C)(=O)=O)CC3)c2)nc2ccc(-c3cn[nH]c3)cc21
// sort listed items: pIC50 descending # answer = labels listed in requested order
II, I, III
(II: 7.84, I: 7.09, III: 6.79)

* * *

- System: AKT phosphorylation
- assay_summary: In vitro test of the inhibition effect on AKT phosphorylation (ELISA, Ramos cells)
- Assay type: cell-based
- experimental_conditions: Homo sapiens, Ramos, Ramos cell line, compound 1 hour, goat anti-human IgM 10 ug/ml for 10 minutes, Phospho-AKT 1/2/3 (ser473) ELISA; read-out: Inhibit AKT phosphorylation IC50
pIC50: −log10 of the molar value.
measurement_label: pIC50

(1) Cn1c(=O)c(Nc2ccc(C(C)(O)C(F)(F)F)cn2)cc2c(F)c(-c3cc[nH]n3)ccc21 (single isomer, unassigned)
(2) Cn1c(=O)c(Nc2ccc(N3CCOCC3)cc2)nc2c(F)cc(-c3cn[nH]c3)cc21
(3) Cn1c(=O)c(Nc2ccc(N3CCC(O)(C(F)(F)F)CC3)cn2)cc2c(F)c(-c3cc[nH]n3)ccc21
// sort listed items: pIC50 descending # answer = labels listed in requested order
2, 1, 3
(2: 7.01, 1: 6.76, 3: 6.46)

* * *

- Tested on: AKT phosphorylation
- assay_summary: In vitro test of the inhibition effect on AKT phosphorylation (ELISA, Ramos cells)
- Type: cell-based
- experimental_conditions: Homo sapiens, Ramos, Ramos cell line, compound 1 hour, goat anti-human IgM 10 ug/ml for 10 minutes, Phospho-AKT 1/2/3 (ser473) ELISA; read-out: Inhibit AKT phosphorylation IC50
measurement_label: IC50 (nM)

(1) Cn1c(=O)c(Nc2ccc(N3CCOCC3)cc2)nc2cc(F)c(-c3cn[nH]c3)cc21 [Example 45]
(2) Cn1c(=O)c(Nc2ccc(N3CCN(C4COC4)CC3)cn2)cc2cc(-c3cc[nH]n3)ccc21 [Example 4]
Hi, I'm comparing 1 with 2 and wondering which one has the bigger number for IC50. Any idea? The response must carry the label of the picked entry.
2

* * *

- Test system: AKT phosphorylation
- assay_summary: In vitro test of the inhibition effect on AKT phosphorylation (ELISA, Ramos cells)
- Type: cell-based
- experimental_conditions: Homo sapiens, Ramos, read-out: Inhibit AKT phosphorylation IC50 (nM)
Measured IC50 by item
Enter your answer as a number in nM; do not include the unit.

[
  {
    "molecule": "Cn1c(=O)c(Nc2ccc(N3CCOCC3)cn2)cc2cc(-c3cc[nH]n3)c(F)cc21 [Example 6]",
    "IC50, nM": 446
  },
  {
    "molecule": "Cn1c(=O)c(Nc2ccc(N3CCCC(C(=O)O)C3)cc2)nc2ccc(-c3cn[nH]c3)cc21 (stereo not shown) [Example 55]",
    "IC50, nM": 116
  },
  {
    "molecule": "Cn1c(=O)c(Nc2ccc(C3(O)CCC3)cn2)cc2c(F)c(-c3cc[nH]n3)ccc21 [Example 21]",
    "IC50, nM": 200
  }
]

// below: IC50 requested for another molecule
Report IC50, nothing else, for this molecule: CN1CCN(c2ccc(Nc3nc4ccc(-c5cn[nH]c5)cc4n(C)c3=O)cc2)CC1 [Example 33]
226
